Consider the following molecules; for each one, report its log10(IC50).
- System: CEM cells HIV-1 protection, formazan growth assay
- Assay Protocol: NCI AIDS Antiviral Assay
- Condition Notes: measured here: growth of uninfected CEM cells
Heads up, the numbers here are log10 of IC50 in µM units.

Task item: Entry COC(=O)C(C)[P+](c1ccccc1)(c1ccccc1)c1ccccc1 (stereo not drawn) has what log10(IC50)?
Reply: 0.76

Task item: Entry CCOC(=O)c1ccc(-c2cc(C)no2)[nH]1 has what log10(IC50)?
Reply: 1.56

Task item: Entry COc1ccc(/C=C(\C#N)c2ccc([N+](=O)[O-])cc2)cc1[N+](=O)[O-] has what log10(IC50)?
Reply: 2.29

Task item: Entry CN1c2ccccc2Oc2ccc3ccccc3c21 has what log10(IC50)?
Reply: 2.13

Task item: Entry CN(C)CC1CCCCCC(CN(C)C)C1=O (stereo not drawn) has what log10(IC50)?
Reply: 0.03

Task item: Entry Cc1nnc2sc(Cl)nn12 has what log10(IC50)?
Reply: 0.79

Task item: Entry NC(=O)CN1CCN(CCCN2c3ccccc3Sc3ccc(Cl)cc32)CC1 has what log10(IC50)?
Reply: 1.49

Task item: Entry CCOP(=O)(OCC)/C(C#N)=C/c1cccn1N(C)C has what log10(IC50)?
Reply: 2.39

Task item: Entry Cc1ccc(N2C(=O)C3c4[nH]c5ccc(C)cc5c4C4CCC(C(C)(C)C)CC4C3C2=O)cc1 (stereo not drawn) has what log10(IC50)?
Reply: 1.14

Task item: Entry CCOc1cnc([C@H]2CCC3[C@@H]4CC=C5C[C@@H](OC(=O)CCC(=O)O)CC[C@]5(C)C4CC[C@@]32C)s1 (stereo partly drawn) has what log10(IC50)?
Reply: 1.51

Task item: Entry O=C1C2=Cc3ccccc3OC2(O)Oc2ccccc21 (stereo not drawn) has what log10(IC50)?
Reply: 1.37

Task item: Entry CCOC1(C)Nc2cc(OC)cc3c2N1C(=O)CCS3 (stereo not drawn) has what log10(IC50)?
Reply: 1.98
